Each entry below carries its reported activity at 4 µM.
- Tested on: Human dermal papilla cells
- method: Dermal papilla cell growth promoting activity (WST-1, spheroid culture), Test Example 5
- Format: cell-based
- condition: Homo sapiens, Human dermal papilla cell; 4 μM, 72 hours, average of 3 wells; read-out: ΔO.D. 450 nm/620 nm (% of control)
Write down the numeric answer in % and omit the unit.

# compound, measurement unit, activity at 4 µM
rows = [
    ("CC(=O)S[C@@H]1/C=C/CC(=O)Cc2c(Cl)c(O)cc(O)c2C(=O)O[C@H](C)C[C@@H]2O[C@H]21", "%", 97.1),
    ("C[C@@H]1C[C@@H]2O[C@H]2[C@H](Sc2ccccc2)/C=C/CC(=O)Cc2c(Cl)c(O)cc(O)c2C(=O)O1", "%", 150),
    ("C[C@@H]1C[C@@H]2O[C@H]2CC/C=C/[C@H](O)Cc2c(Cl)c(O)cc(O)c2C(=O)O1", "%", 170),
    ("C[C@@H]1C[C@@H]2O[C@H]2/C=C\\C=C\\C(=O)Cc2c(Cl)c(OC(=O)c3cccnc3)cc(OC(=O)c3cccnc3)c2C(=O)O1", "%", 150),
    ("C[C@@H]1C[C@@H]2O[C@H]2/C=C\\C=C\\[C@H](O)Cc2c(Cl)c(O)cc(O)c2C(=O)O1", "%", 175),
    ("C[C@@H]1C[C@@H]2O[C@H]2/C=C\\C=C\\C(=O)Cc2c(Cl)c(OC3OC(CO)C(O)C3O)cc(O)c2C(=O)O1 (stereo partly drawn)", "%", 77.1),
    ("C[C@@H]1C[C@@H]2O[C@H]2/C=C\\C=C\\C(=O)Cc2c(Cl)c(O)cc(O)c2C(=O)O1", "%", 184),
    ("C[C@@H]1CC2OC2C/C=C\\C[C@H](O)Cc2c(Cl)c(O)cc(O)c2C(=O)O1 (stereo partly drawn)", "%", 89.6),
]

Lookup: Using known records, supply activity at 4 µM for COc1cc(O)c2c(c1)/C=C/CC(O)C(O)C(=O)/C=C\CC(C)OC2=O (stereo not drawn)
Found: 98.6

Lookup: Using known records, supply activity at 4 µM for CC1C/C=C/C(O)C/C=C/C(=O)Cc2c(Cl)c(O)cc(O)c2C(=O)O1 (stereo not drawn)
Found: 87.6

Lookup: Using known records, supply activity at 4 µM for C[C@@H]1C[C@@H]2O[C@H]2CCCCC(=O)Cc2c(Cl)c(O)cc(O)c2C(=O)O1
Found: 148

Lookup: Using known records, supply activity at 4 µM for O=C1c2no[n+]([O-])c2CCC1NO (stereo not drawn)
Found: 104

====

- Tested on: Human dermal papilla cells
- method: Dermal papilla cell growth promoting activity (WST-1, spheroid culture), Test Example 5
- Assay type: cell-based
- condition: Homo sapiens, Human dermal papilla cell; 4 μM, 72 hours, average of 3 wells; read-out: ΔO.D. 450 nm/620 nm (% of control)
Each entry below carries its reported activity at 4 µM.

Solved entries (count: 4):
# compound, activity at 4 µM
rows = [
    ("CC1CC2OC2CC2=CC=C(Cc3c(Cl)c(O)cc(O)c3C(=O)O1)O2 (centres unmarked) [Compound 77]", "86.3%"),
    ("CC(=O)S[C@@H]1/C=C\\CC(=O)Cc2c(Cl)c(O)cc(O)c2C(=O)O[C@H](C)C[C@@H]2O[C@H]21 [Compound 55]", "127%"),
    ("CC1CC2OC2CC(O)CCC(=O)Cc2c(Cl)c(O)cc(O)c2C(=O)O1 (centres unmarked) [Compound 73]", "81.2%"),
    ("C[C@@H]1C[C@@H]2O[C@H]2/C=C\\C=C\\C(=NO)Cc2c(Cl)c(O)cc(O)c2C(=O)O1 [Compound 35]", "182%"),
]

Lookup: Using known records, supply activity at 4 µM for C[C@@H]1C[C@H](OC=O)[C@@H](Cl)/C=C\C=C\C(=O)Cc2c(Cl)c(O)cc(O)c2C(=O)O1 [Compound 18]
Found: 147%
